- TARGET SYSTEM: Pantothenate synthetase (Mycobacterium tuberculosis (strain ATCC 25618 / H37Rv)) (UniProt P9WIL5)
- Sequence (P9WIL5 whole entry, looked up): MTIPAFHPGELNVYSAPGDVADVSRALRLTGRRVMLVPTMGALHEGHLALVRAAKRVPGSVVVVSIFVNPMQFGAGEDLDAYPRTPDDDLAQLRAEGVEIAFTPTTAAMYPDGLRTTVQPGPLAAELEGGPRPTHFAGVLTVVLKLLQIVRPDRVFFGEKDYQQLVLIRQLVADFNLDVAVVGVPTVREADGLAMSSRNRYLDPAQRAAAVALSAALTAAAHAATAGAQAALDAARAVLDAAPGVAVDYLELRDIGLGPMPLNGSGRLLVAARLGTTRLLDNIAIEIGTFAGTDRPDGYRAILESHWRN
- EXPERIMENT SUMMARY: Coupled enzyme confirmation of inhibitors against recombinant Mtb PanC (AID 375);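 also: 0% = full reaction with vehicle and 100% = no enzyme background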
- TEST CONTEXT: coupled enzyme assay; at 10 µM, stronger effect = higher value
Respond with TRUE for inhibition values of 2% and above, FALSE for values below.

CC(C)c1ccc(NC(=O)C2CC(=O)N(C(C)C)C2)cc1 (stereo unspecified) :: TRUE
CCCn1c(N2CCN(CC(=O)Nc3ccc4c(c3)OCCO4)CC2)nc2ccccc21 :: TRUE
COc1ccc2[nH]c(=O)c(CN(C(=O)c3cccnc3)c3ccccc3OC)cc2c1 :: FALSE

Is reported inhibition greater than or equal to 2% here: CC(=O)NC(=O)NC1CSCC1OC(C)=O (stereo unspecified)
TRUE

Is reported inhibition greater than or equal to 2% here: O=C(O)CCc1ccc(-c2ccc(F)cc2)n1CC(=O)O
FALSE

Is reported inhibition greater than or equal to 2% here: COc1ccc(C)cc1S(=O)(=O)N1CCN(Cc2ccccc2)CC1
TRUE

Is reported inhibition greater than or equal to 2% here: CCCCSc1cc(C)nc2ncnn12
FALSE

Is reported inhibition greater than or equal to 2% here: Cc1ccccc1NC(=O)C1CCC(C)(C(=O)O)C1(C)C (stereo unspecified)
FALSE

Is reported inhibition greater than or equal to 2% here: CC(C)OC(=O)c1ccc(OC(=O)c2cccnc2)cc1
FALSE

Is reported inhibition greater than or equal to 2% here: Cc1ccc(C)c(OCCCC(C)(C)C(=O)O)c1
FALSE

Is reported inhibition greater than or equal to 2% here: O=C(C1CCCN(S(=O)(=O)c2cnc[nH]2)C1)N1CCN(c2ccc(Cl)cc2)CC1 (stereo unspecified)
FALSE

Is reported inhibition greater than or equal to 2% here: CCCOc1cccc(NC(=O)c2c(-c3ccccc3)noc2C)c1
FALSE

Is reported inhibition greater than or equal to 2% here: O=C1CSC(=Nc2ccc(O)cc2)N1c1ccc(O)cc1
FALSE

* * *

- TARGET SYSTEM: Pantothenate synthetase (Mycobacterium tuberculosis (strain ATCC 25618 / H37Rv)) (UniProt P9WIL5)
- EXPERIMENT SUMMARY: Coupled enzyme confirmation of inhibitors against recombinant Mtb PanC (AID 375);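 also: 0% = full reaction with vehicle and 100% = no enzyme background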
- TEST CONTEXT: coupled enzyme assay; at 10 µM, stronger effect = higher value
MEASURED ENDPOINT: inhibition (%)
I only need the number, in %, no unit after it.

Sample answers from the record:
CCOc1ccc(Cn2nnc(C(=O)NCc3ccc(OC)cc3)c2N)cc1 :: 2
COc1ccc(S(=O)(=O)N2CCN(Cc3ccc(Cl)cc3)CC2)cc1 :: 0
Cn1c(=O)c2c(ncn2CC(O)CO)n(C)c1=O (configuration not stated) :: 0

Quick one: inhibition for CN(C)[C@@H]1C(=O)C(C(N)=O)=C(O)[C@@]2(O)C(=O)C3=C(O)c4c(O)cccc4[C@@](C)(O)[C@H]3[C@H](O)[C@@H]12 ?
3

Quick one: inhibition for COc1ccc(C(=O)NCCc2nnc(SCc3nc4ccccc4c(=O)[nH]3)n2C)cc1 ?
0

Quick one: inhibition for CCN1CCN(C(=O)c2cc3c(=O)n(C)c4ccccc4c3n2C)CC1 ?
0

Quick one: inhibition for COc1cc2c(cc1OC)CN(C(=O)COc1ccc(C#N)cc1)CC2 ?
0

Quick one: inhibition for COC(=O)C1(C#N)C(c2ccccc2)C1(C(=O)OC)C(=O)OC (configuration not stated) ?
0

Quick one: inhibition for CCOC(=O)c1[nH]c(C)c(C(=O)NCC2CCCO2)c1C (configuration not stated) ?
0

Quick one: inhibition for Clc1ccc(OCCCn2cncn2)cc1Cl ?
0

Quick one: inhibition for CCC1(C)Cc2c(C#N)c(N)n(N)c(=S)c2CO1 (configuration not stated) ?
0

Quick one: inhibition for Cc1ccc(C(C)n2cc(C(=O)NCCN3CCN(C)CC3)nn2)cc1 (configuration not stated) ?
0

Quick one: inhibition for O=C(CCn1c(=O)oc2ccccc21)NCCN1CCc2ccccc2C1 ?
0

Quick one: inhibition for COc1ccc(-c2nc(C)sc2CC(=O)O)cc1 ?
4

Quick one: inhibition for C/C(=N\O)c1ccc2c3c([nH]c2c1)CCCC3 ?
2

Quick one: inhibition for CC(=O)Nc1ccc(S(=O)(=O)N2CCN=C2C)cc1 ?
3

Quick one: inhibition for CC(C)=CCCC(C)CN(C)CCc1ccccn1 (configuration not stated) ?
0
